molecular target: rat calcitonin receptor (rat) (UniProt P32214); assay: SPA competition vs 125I-calcitonin, membranes with rat CTR (Assay VIII)
Numbered stars: 1 amine (or outer) side, 2 acyl side, 3 side chain; on linkers, the order of the positions; unused ones are H or OH. Side chains are listed from the residue outwards. * marks the point of attachment. C20 diacid = O=C(O)CCCCCCCCCCCCCCCCCCC(=O)*; C16 diacid = O=C(O)CCCCCCCCCCCCCCC(=O)*; γGlu = O=C(O)[C@H](CCC(=O)[*:2])N[*:1]; C14 diacid = O=C(O)CCCCCCCCCCCCC(=O)*; AEEA = NCCOCCOCC(=O)O
MEASUREMENT_TYPE: IC50 (pM)

INSERT INTO results (binder, meas_value) VALUES
  ('{C20 diacid-γGlu-AEEA}-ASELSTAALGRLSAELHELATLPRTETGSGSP-NH2 [[N-terminal(C20 diacid-gGlu-OEG), des1, 30S, 31G]mimylin]', 44);

a = Ac-ASELSTAALGRLSAK([γGlu-C20 diacid])LHELATLPRTETGSGSP-NH2 [[N-terminal(acetyl), des1, 16K(C20 diacid-gGlu), 30S, 31G]mimylin]
b = {C14 diacid}-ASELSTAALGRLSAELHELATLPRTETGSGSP-NH2 [[N-terminal(C14 diacid), des1, 30S, 31G]mimylin]
c = {C16 diacid-γGlu}-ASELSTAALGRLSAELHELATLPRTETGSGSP-NH2 [[N-terminal(C16 diacid-gGlu), des1, 30S, 31G]mimylin]
Arrange these binders by their IC50, starting with the largest number. Respond with the label ranking, as requested.
b, a, c
